Provenance of the data: paper PMC5540273

Recorded %Inh values for a group of compounds are listed next.
System: S6K1;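 also: KINOMEscan kinase panel screen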
Conditions: concentration: 1 μM, replicates: in singlicate; n = 1
measurement_name: %Inh (%)

>>> test_value("Cl.c1ccc(Cn2ncc3cc(Nc4ncnc5ccccc45)ccc32)cc1")
4
>>> test_value("CC(=O)Nc1n[nH]c2ncc(-c3ccccc3)cc12")
50
>>> test_value("CN1c2ccc(-c3ccc(C(=O)NCCO)cc3)cc2-c2[nH]ncc2S1(=O)=O")
33
>>> test_value("COC(=O)c1cccc(NC(=O)NCCNc2ccnc(Nc3ccc(F)cc3)n2)c1")
0
>>> test_value("COc1ccc(-c2nc3n(c2-c2ccncc2)CCC3)cc1")
0
>>> test_value("FC(F)(F)c1ccc(-c2nn3ncccc3c2-c2ccnc(Nc3cccc(C(F)(F)F)c3)n2)cc1")
0
>>> test_value("Cn1ccc2ncnc(Oc3ccc(NC(=O)Nc4cccnc4)c(Cl)c3)c21")
0
>>> test_value("Clc1ccc(-c2cc(-c3c[nH]nc3-c3ccccn3)ccn2)cc1")
0
>>> test_value("O=C(c1ccc(-c2cc(-c3c[nH]nc3-c3ccccn3)ccn2)cc1)N1CCCC1")
7
>>> test_value("OCCOCCn1ccc2ncnc(Nc3ccc(Oc4cccc(Cl)c4)c(Cl)c3)c21")
0
>>> test_value("CSc1ccc(NC2=C(c3ccccc3Cl)C(=O)NC2=O)cc1")
1
>>> test_value("COc1ccc(Nc2nccc(N3CCC(NC(=O)Nc4ccc5c(c4)OCO5)C3)n2)cc1 (stereo not drawn)")
0
>>> test_value("Nc1nc(-c2ccc3c(N)n[nH]c3c2)cc(N2CCC[C@@H](C(=O)Nc3ccccc3)C2)n1.O=C(O)C(F)(F)F.O=C(O)C(F)(F)F")
0
>>> test_value("CCc1nc(-c2cccc(C)c2)c(-c2ccnc(NC(=O)c3ccccc3)c2)s1")
0
>>> test_value("CCc1nc(-c2cccc(N(C)S(=O)(=O)c3ccccc3)c2)c(-c2ccnc(Nc3ccc(N4CCN(C(C)=O)CC4)nc3)n2)s1")
7
>>> test_value("O=C(Nc1ccccc1)Nc1ccc(Oc2ccc3nccn3n2)cc1")
0
>>> test_value("FC(F)(F)c1ccc(-c2cc(-c3c[nH]nc3-c3ccccn3)ccn2)cc1")
2
>>> test_value("COc1cc2ncnc(Nc3ccc(OCc4ccccc4Br)c(Cl)c3)c2cc1OC.Cl")
11
